assay: chemical genetic growth profiling, strain panel (AID 1159580);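 further: tested at 20 µM; growth read once vehicle control cultures reached saturation at 30 °C; 1 = growth at the plate median or of vehicle wells; lower values mean less growth of the strain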; settings: S. cerevisiae deletion strains, growth OD, locus YGL167C, strain pmr1, active compounds read low
Out of some 5,500 compounds screened, about 2,000 (36%) were called active. About 18% were inconclusive and are not listed. The list shows a part of the results.
readout type: normalized growth
Note: the reply should be a number with no unit written.

See these solved cases before continuing.
compound	quantitative readout
NC12CC3CC(CC(C3)C1)C2	1
Cc1cc(O)cc(=O)o1	0.983
OC(CCN1CCCCC1)(c1ccccc1)C1CC2C=CC1C2 (stereo unspecified)	1
OC(CCN1CCCC1)(c1ccccc1)C1CCCCC1 (stereo unspecified)	0.985
NCCC(=O)N[C@@H](Cc1cnc[nH]1)C(=O)O	1.01
COC(=O)C[C@H]1C(C)(C)C2(O)OC34CC2C(=O)[C@]1(C)C3CC[C@]1(C)C4=CC(=O)O[C@H]1c1ccoc1 (stereo partly specified)	1

Specify reported normalized growth for the compound shown: C/C=C1\[C@H]2C=C(C)C[C@]1(N)c1ccc(=O)[nH]c1C2
1.02

###

assay: chemical genetic growth profiling, strain panel (AID 1159580);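 further: tested at 20 µM; growth read once vehicle control cultures reached saturation at 30 °C; 1 = growth at the plate median or of vehicle wells; lower values mean less growth of the strain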; details: S. cerevisiae deletion strains, growth OD, locus YMR125W, strain sto1
In all, about 5,500 compounds went through this assay and about 2,000 (36%) were called active. Not shown: some 18% with an inconclusive outcome. Rule as the data show it: active = normalized growth mostly below about 0.91 (no sharp cut-off); inconclusive = no clear call, values can overlap the other calls; inactive = mostly above about 0.92. The list shows a part of the results.
Assign a class; possible classes are active, inactive

Worked examples, 5 molecules total:
molecule	group label
C#C[C@]1(OC(C)=O)CCC2C3CCC4=CC(=O)CC[C@@H]4C3CC[C@@]21C (some centres undefined)	inactive
CNC(=O)O/N=C\C(C)(C)SC	inactive
NC(N)=N/N=C/c1c(Cl)cccc1Cl	inactive
CC1(C)CC(O)C2(C)CCC3(C)C(=CCC4C5(C)CCC(O)C(C)(CO)C5CCC43C)C2C1 (centres undefined)	inactive
Nc1c2ccccc2nc2ccccc12 (tested in a mixture with another compound)	inactive

Fill in: this test's call for COc1ccc2c(c1)c(CC(=O)O)c(C)n2C(=O)c1ccc(Cl)cc1 is ___
inactive

What did this assay record as the result for Nc1c2c(nc3ccccc13)CCCC2 ?
inactive

In this assay, the call recorded for CC(=O)/C=C\[C@@H]1[C@@]2(C)CCCC(C)(C)C2CC[C@@]1(C)O (some centres undefined) was what?
inactive

Tell me the recorded outcome of this test for C[C@@H]1OC(O[C@H]2C(O[C@H]3CC[C@@]4(C)C(CC[C@]5(C)C4CC=C4C6CC(C)(C)CC[C@]6(C(=O)O)CC[C@]45C)[C@]3(C)CO)OC[C@H](O)[C@@H]2O)[C@H](O)[C@H](O)[C@H]1O (some centres undefined) .
active

Would you mind telling me which call this test gave CC1OC(=O)C(C(C)C)NC(=O)C(C(C)C)OC(=O)C(C(C)C)NC(=O)C(C)OC(=O)C(C(C)C)NC(=O)C(C(C)C)OC(=O)C(C(C)C)NC(=O)C(C)OC(=O)C(C(C)C)NC(=O)C(C(C)C)OC(=O)C(C(C)C)NC1=O (centres undefined) ?
active

// param item: Nc1ccc(S(=O)(=O)Nc2ccnn2-c2ccccc2)cc1 ; yields the recorded call
inactive

For this molecule, state the assay outcome: C/C=C1\[C@H]2C=C(C)C[C@]1(N)c1ccc(=O)[nH]c1C2
inactive

Just curious, what result did Cc1cc(O)cc(C)c1Cl get here?
inactive

Dear colleague, could you share the recorded outcome for CCOc1ccc2nc3cc(N)ccc3c(N)c2c1 when you have a moment?
inactive

// return assay outcome for Cc1cc(-n2c(=O)[nH]c(=O)n(C)c2=O)ccc1Oc1ccc(SC(F)(F)F)cc1
active

The measurements presented in this section are drawn from PubChem BioAssay AID1159580.
